Quick list: 100 nM Human C5 R885H-mmh Bound (RU) per entry.
target: T1, human C5 R885H-mmh (human, UniProt P01031 19-1676); assay: SPR, mAb captured via anti-hFc, 25C
T1 construct: also called human C5 variant R885H
Dear colleague, please return just the value in RU, with no unit written.

// worked examples, 100 nM Human C5 R885H-mmh Bound (RU) included
| Binder | Units Label | 100 nM Human C5 R885H-mmh Bound (RU) |
| --- | --- | --- |
| H4H12161P (antibody, human IgG4, V domains shown, Human IgG4 Fc with S108P hinge mutation (H4H)) VH: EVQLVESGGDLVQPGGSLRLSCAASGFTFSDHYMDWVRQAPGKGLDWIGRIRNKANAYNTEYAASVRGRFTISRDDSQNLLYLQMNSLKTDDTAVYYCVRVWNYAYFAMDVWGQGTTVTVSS VL: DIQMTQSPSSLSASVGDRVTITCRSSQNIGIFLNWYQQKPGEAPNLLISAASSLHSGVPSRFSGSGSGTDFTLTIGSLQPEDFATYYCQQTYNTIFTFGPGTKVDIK | RU | 199 |
| H4H12169P (antibody, human IgG4, V domains shown, Human IgG4 Fc with S108P hinge mutation (H4H)) VH: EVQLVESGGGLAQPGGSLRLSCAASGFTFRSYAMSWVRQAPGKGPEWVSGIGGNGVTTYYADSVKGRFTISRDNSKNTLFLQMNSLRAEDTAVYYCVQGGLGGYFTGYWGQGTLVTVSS VL: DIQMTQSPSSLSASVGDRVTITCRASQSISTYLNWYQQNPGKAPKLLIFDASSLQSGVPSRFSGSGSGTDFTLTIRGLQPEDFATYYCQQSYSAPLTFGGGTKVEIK | RU | 173 |
| H4H12175P (antibody, human IgG4, V domains shown, Human IgG4 Fc with S108P hinge mutation (H4H)) VH: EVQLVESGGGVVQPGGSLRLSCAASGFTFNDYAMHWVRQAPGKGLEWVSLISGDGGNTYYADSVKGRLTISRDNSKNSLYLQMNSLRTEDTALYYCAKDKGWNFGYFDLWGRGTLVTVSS VL: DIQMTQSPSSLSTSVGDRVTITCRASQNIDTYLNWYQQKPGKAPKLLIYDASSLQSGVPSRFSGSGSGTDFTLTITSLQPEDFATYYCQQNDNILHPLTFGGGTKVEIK | RU | 207 |

Task: Entry H4H12170P (antibody, human IgG4, V domains shown, Human IgG4 Fc with S108P hinge mutation (H4H)) VH: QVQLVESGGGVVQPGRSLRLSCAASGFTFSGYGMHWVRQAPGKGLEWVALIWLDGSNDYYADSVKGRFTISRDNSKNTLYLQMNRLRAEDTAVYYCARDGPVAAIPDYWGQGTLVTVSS VL: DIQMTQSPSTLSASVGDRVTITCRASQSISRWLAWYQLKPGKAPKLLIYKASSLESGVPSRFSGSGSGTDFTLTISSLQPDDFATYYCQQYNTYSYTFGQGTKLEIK : reported 100 nM Human C5 R885H-mmh Bound (RU) = ?
Output: 442

Task: Queued: H4H11683N (antibody, V domains shown, also called H2M11683N) VH: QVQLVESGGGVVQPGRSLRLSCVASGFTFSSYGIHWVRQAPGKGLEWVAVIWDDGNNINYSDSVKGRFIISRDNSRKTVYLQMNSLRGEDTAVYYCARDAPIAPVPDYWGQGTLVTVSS VL: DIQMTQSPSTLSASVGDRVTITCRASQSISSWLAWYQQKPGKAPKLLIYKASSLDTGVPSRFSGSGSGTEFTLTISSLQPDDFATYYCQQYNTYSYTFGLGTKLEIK
Output: 118

Task: Queued: H4H11686N (antibody, V domains shown, also called H2M11686N) VH: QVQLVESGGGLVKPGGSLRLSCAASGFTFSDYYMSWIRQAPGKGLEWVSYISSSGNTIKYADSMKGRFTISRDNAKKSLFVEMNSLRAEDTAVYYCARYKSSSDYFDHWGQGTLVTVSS VL: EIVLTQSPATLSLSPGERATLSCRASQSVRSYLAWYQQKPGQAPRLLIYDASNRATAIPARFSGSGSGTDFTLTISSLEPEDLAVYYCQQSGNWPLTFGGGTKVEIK
Output: 259

Task: Queued: H4H12167P (antibody, human IgG4, V domains shown, Human IgG4 Fc with S108P hinge mutation (H4H)) VH: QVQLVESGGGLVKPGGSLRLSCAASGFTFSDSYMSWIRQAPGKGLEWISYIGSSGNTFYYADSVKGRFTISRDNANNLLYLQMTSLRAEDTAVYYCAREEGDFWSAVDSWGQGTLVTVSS VL: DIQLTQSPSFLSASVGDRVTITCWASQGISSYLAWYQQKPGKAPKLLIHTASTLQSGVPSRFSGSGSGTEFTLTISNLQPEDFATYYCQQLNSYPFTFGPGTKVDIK
Output: 187

Task: Queued: H4H12171P (antibody, human IgG4, V domains shown, Human IgG4 Fc with S108P hinge mutation (H4H)) VH: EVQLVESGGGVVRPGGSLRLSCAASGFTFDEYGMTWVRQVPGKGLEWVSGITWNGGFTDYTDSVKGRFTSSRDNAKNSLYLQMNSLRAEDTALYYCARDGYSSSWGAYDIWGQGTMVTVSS VL: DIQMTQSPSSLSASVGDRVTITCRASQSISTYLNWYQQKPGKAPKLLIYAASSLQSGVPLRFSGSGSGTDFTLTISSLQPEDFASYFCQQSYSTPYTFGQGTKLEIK
Output: 51

Task: Queued: H4H12168P (antibody, human IgG4, V domains shown, Human IgG4 Fc with S108P hinge mutation (H4H)) VH: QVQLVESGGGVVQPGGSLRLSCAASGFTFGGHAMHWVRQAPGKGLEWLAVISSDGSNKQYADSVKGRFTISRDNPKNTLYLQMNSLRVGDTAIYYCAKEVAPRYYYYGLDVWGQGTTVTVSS VL: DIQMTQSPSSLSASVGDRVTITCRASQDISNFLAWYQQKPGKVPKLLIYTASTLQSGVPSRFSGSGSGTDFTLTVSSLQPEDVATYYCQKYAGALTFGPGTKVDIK
Output: 197
